assay_remarks: COS7 lysate on small-molecule microarray, probe aHis, 635 nm (AID 1123);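 further: z-score combines 667nm fluorescence intensity with signal-to-noise per printed compound spot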
recorded_conditions: COS7 cell lysate, fluorescence, higher = more signal
# Lookup of reported composite z-score keyed by entry
Reply with the value as a number alone.

Worked examples, 5 compounds total:
compound	composite z-score
C=CCNC(=O)[C@H]1[C@@H]2C(=O)O[C@@H](c3ccccc3)[C@@H](c3ccccc3)N2[C@@H](c2ccccc2OCCO)[C@]12C(=O)Nc1ccc(C#CC3=CCCCC3)cc12	1.19
CCCCCC1=C2CNC(CCC)(C(=O)OC)C=C2C(C)C1=O (configuration not stated)	1.61
C=CCNC(=O)[C@@H]1[C@H]2C(=O)O[C@H](c3ccccc3)[C@H](c3ccccc3)N2[C@H](c2ccc(OCCO)cc2)[C@@]12C(=O)Nc1ccc(C#CCCO)cc12	2.62
C=CCOC(=O)[C@H]1[C@@H]2C(=O)O[C@@H](c3ccccc3)[C@@H](c3ccccc3)N2[C@@H](c2ccc(OCCOC(=O)[C@@H]3C[C@@H]4C(=O)N[C@@H](CCCC[N+](C)(C)C)C(=O)N4[C@@H]3c3ccc(O)cc3)cc2)[C@]12C(=O)Nc1ccccc12	0.875
O=C1O[C@@H](c2ccccc2)[C@@H](c2ccccc2)N2[C@@H](c3ccc(OCCO)cc3)[C@]3(C(=O)Nc4ccccc43)[C@@H](C(=O)NC[C@H](O)c3ccccc3)[C@H]12	1.67

Quick check: composite z-score of [N-]=[N+]=NCc1ccccc1C[C@@]1(C(=O)NCC(O)CO)N=C(c2ccc(OCCCO)cc2)O[C@@H]1c1ccccc1N=[N+]=[N-] (some centres not stated) ?
3.14

Now try NCCCCCNC(=O)[C@@H]1C[C@@H]2C(=O)N[C@@H](Cc3ccccc3)C(=O)N2[C@@H]1c1cccc(OCCO)c1 .
1.18

Likewise for Cc1ccc(S[C@]2(C(=O)NCC(F)(F)F)CC(=O)N(C(C)C)[C@@H]2c2ccc(CO)cc2I)cc1 ?
0.506

Follow-up entry: CCOC(=O)C=Cc1cc([N+](=O)[O-])ccc1O
0.751

Would you kindly repeat that for COC(=O)[C@@]1(Cc2ccc(F)cc2)[C@H]2c3cc(C(=O)N4CCCC4)n(Cc4ccc(C)o4)c3C[C@H]2CN1C(=O)c1ccccc1 ?
1.95

// query: CCCC[C@@H]1C[C@H]1[C@@H](NC(=O)c1ccco1)c1ccc(Cl)cc1
1.99

What do we get for O=C1NC(=O)C2C1C=CC(C(O)c1cccc3ccccc13)N2Nc1ccccn1 (configuration not stated) ?
0.296

Here is the next compound: C=CCNC(=O)[C@@H]1[C@H]2C(=O)O[C@H](c3ccccc3)[C@H](c3ccccc3)N2[C@H](c2ccccc2OCCO)[C@@]12C(=O)N(C(=O)OCCOC)c1ccc(C#CCNC(N)=O)cc12
1.47

Then this compound: CCCC[C@H]1OB(O)C[C@H]2C1=C(COc1ccccc1)C[C@H]1C(=O)N(C)C(=O)[C@H]12
0.486
